Cited source for all entries: the supplement of paper PMC10065799

phosphorylation enrichment by entry:
target: FGFR1 (UniProt P11362); assay: phosphorylation enrichment, bacterial display (enrichment ratio); higher = better substrate or ligand; peptides without Tyr show the background;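 further: 11-residue human phosphosite peptides and single-mutation variants displayed on the E. coli surface, counted by deep sequencing, each peptide's frequency after selection divided by its frequency in the unselected input library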;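 further: frequency after pTyr selection over input frequency; kinase dosed for 20-30% of maximal phosphorylation in three min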
Sequence (P11362 whole entry, looked up): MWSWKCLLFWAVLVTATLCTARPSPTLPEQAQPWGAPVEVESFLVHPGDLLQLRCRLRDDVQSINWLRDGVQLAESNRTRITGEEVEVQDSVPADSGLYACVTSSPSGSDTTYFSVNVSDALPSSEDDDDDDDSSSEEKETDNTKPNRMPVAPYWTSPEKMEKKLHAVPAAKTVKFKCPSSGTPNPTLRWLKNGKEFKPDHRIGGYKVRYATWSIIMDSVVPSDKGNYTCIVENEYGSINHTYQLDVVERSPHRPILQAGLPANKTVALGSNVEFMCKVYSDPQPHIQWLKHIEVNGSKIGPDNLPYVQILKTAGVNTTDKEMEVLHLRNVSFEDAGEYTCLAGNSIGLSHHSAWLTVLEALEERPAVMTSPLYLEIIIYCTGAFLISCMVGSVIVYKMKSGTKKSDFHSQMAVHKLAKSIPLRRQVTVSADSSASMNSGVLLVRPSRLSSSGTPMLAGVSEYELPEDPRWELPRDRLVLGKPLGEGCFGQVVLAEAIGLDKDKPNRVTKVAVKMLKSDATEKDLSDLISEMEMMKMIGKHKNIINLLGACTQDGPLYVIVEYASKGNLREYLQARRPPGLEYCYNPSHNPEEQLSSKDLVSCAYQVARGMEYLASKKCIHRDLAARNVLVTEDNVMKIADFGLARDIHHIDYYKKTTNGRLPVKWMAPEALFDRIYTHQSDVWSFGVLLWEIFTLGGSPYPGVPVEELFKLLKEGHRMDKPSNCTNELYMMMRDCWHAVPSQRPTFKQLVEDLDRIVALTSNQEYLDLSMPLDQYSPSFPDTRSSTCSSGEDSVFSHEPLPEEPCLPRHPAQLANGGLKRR

querySequence: SWDKRYCEAGF [ITGA2B_Y197]
system: FGFR1 (UniProt P11362)
reading: 0.506

querySequence: DLRTGYSVPFG [TGM1_Y370_Y365D_YF]
system: FGFR1 (UniProt P11362)
reading: 0.493

querySequence: NDHHVYLEGTL [ALDOB_Y223]
system: FGFR1 (UniProt P11362)
reading: 0.494

Quickly give me recorded phosphorylation enrichment for FPPTHYIRRMP [SLC4A11_Y820_V824M_YF] 0.498

Fill in reported phosphorylation enrichment for this entry: STEAIYRRFSK [SH3PXD2B_Y42_YF] 0.493

Specify measured phosphorylation enrichment for EAIMTYVSSFF [ACTN4_Y260_K255E_YF] . 0.501
